I'd appreciate it if you could supply TGI values for the items below.
# Tested on: ACHN renal
# Measurement Protocol: NCI tumour cell line growth inhibition, 48 h

COc1ccc(OC)c(/C=N/N=C(\N)NO)c1 :: 81.4 µM
COC1OC2COC(C)(C)OC2C(OC(C)=O)C1NC(=O)N(CCCl)N=O (stereo not drawn) :: > 100 µM
CCOC(=O)NC(Nc1ccc(F)cc1)(C(=O)OCC)C(F)(F)F (stereo not drawn) :: > 100 µM

State recorded TGI for all listed molecules.
1. CC(=O)c1ccc2c(c1)CC1(C2)Cc2cc3c(c(C(=O)O)c2C1)CCC3 (stereo not drawn)
2. COc1cc2c(c(OC)c1OC)-c1ccc(SC)c(=O)cc1[C@@H](O)CC2
3. N/N=C(/Cc1nc2ccc(C(=O)c3ccccc3)cc2[nH]c1=O)C(=O)Nc1ccc([N+](=O)[O-])cc1[N+](=O)[O-]
4. O=Cc1cc(C(=O)OCc2ccccc2)n(S(=O)(=O)c2ccccc2)c1
5. CC(=O)[C@H]1CCC2[C@@H]3CC=C4C[C@@H]([O-])CC[C@]4(C)C3CC[C@@]21C.CC(=O)[C@H]1CCC2[C@@H]3CC=C4C[C@@H]([O-])CC[C@]4(C)C3CC[C@@]21C.CC(=O)[CH-]C(=O)c1ccccc1.CC(=O)[CH-]C(=O)c1ccccc1.Cl.[Ti+4] (stereo partly drawn)

Result:
> 100 µM
> 100 µM
> 100 µM
36.6 µM
99.1 µM

----------
# Tested on: HT29 colon
# Measurement Protocol: NCI tumour cell line growth inhibition, 48 h; in the data active = GI50 below about 0.43 µM; inactive = the rest
Pick one: 1.0 (active), 0.0 (inactive)

Oc1c(Cl)cc(Cl)c2ccc(Cn3cc(-c4ccc(C(F)(F)F)cc4)nn3)nc12 :: 0.0
CN1CCN(Cc2ccc(NC(=O)c3cncc(C#Cc4cnc(N)c5cccnc45)c3)cc2C(F)(F)F)CC1 :: 1.0
CC(=O)N1N=C(c2ccc(Nc3nc(Nc4ccc(F)cc4)nc(Nc4ccc(F)cc4)n3)cc2)CC1c1ccc(N(C)C)cc1 (configuration not stated) :: 0.0
CSc1nc2c(c(=O)n1C)CN(C1CCCCC1)C(=O)C(c1ccccc1)N2 (configuration not stated) :: 0.0
CCOc1ccn(-c2ccc(F)cc2)c(=O)c1C(=O)Nc1ccc(Oc2ccnc(N)c2Cl)c(F)c1 :: 0.0
N/N=C(/Cc1nc2ccc(C(=O)c3ccccc3)cc2[nH]c1=O)C(=O)Nc1ccc([N+](=O)[O-])cc1[N+](=O)[O-] :: 0.0

Request: What classification did CCN(CC)CCCC(C)N/C(=C1\C(=O)NC(=O)\C1=C(/NC(C)CCCN(CC)CC)c1cccc(OC)c1)c1cccc(OC)c1 (configuration not stated) end up with in this test?
Result: 1.0

Request: Please state the recorded outcome for this compound: CO[C@H]1CC(O[C@@H]2/C(C)=C/C[C@@H]3C[C@@H](C[C@]4(CC[C@H](C)[C@@H](C5CCCCC5)O4)O3)OC(=O)[C@@H]3C=C(C)/C(=N/O)[C@H]4OC/C(=C\C=C\[C@@H]2C)[C@]43O)O[C@@H](C)C1O (some centres not stated)
Result: 0.0

Request: Recorded test outcome, item Cc1cn(Cc2ccc(C34CC5CC(CC(C5)C3)C4)c(O)c2)c(=O)[nH]c1=O
Result: 0.0

Request: Outcome logged for Cn1c2c(c3c(Cl)nncc31)Cc1ccccc1-2 in this assay:
Result: 0.0

Request: # lookup: test call for Cn1cc(-c2cnn3c(N)c(Br)c(C4CCCNC4)nc23)cn1 (configuration not stated)
Result: 0.0

Request: // return assay outcome for Cc1cc(-c2cc(O)ccc2Cl)cc2nnc(Nc3ccc(OCCN4CCCC4)cc3)nc12
Result: 0.0

----------
Can you tell me TGI for the items I'm about to list?
# Tested on: K-562 leukemia
# Measurement Protocol: NCI tumour cell line growth inhibition, 48 h

O=C(c1ccc(Cl)cc1)C(O)c1ccc(Cl)cc1 (stereo not given) :: > 100 µM
N#Cc1cnc(Nc2cc(NC[C@H]3CNCCO3)c(C(F)(F)F)cn2)cn1 :: 22.1 µM
C=CCC(N[C@H](CO)c1ccccc1)c1cn(Cc2ccccc2Cl)c(=O)n(Cc2ccccc2Cl)c1=O (stereo not given in full) :: 40.7 µM

For every item below, please supply its TGI.
1. CC1=CC(C)(C)NN1C1=NS(=O)(=O)c2ccccc2N1C
2. CSc1nc2c(c(=O)n1C)N=C(c1ccc([N+](=O)[O-])cc1)CC(c1ccccc1)N2 (stereo not given)
3. CCCCCc1c(CCCC)c(=O)[nH]c2nc(NC(=O)CCCC)ccc12
4. Cn1cc(-c2cnn3c(N)c(Br)c(C4CCCNC4)nc23)cn1 (stereo not given)
5. Cn1c2ccccc2c(=O)c2c(O)cc3c(c21)C=CC(C)(C)O3

Result:
["> 100 µM", "> 100 µM", "> 100 µM", "> 100 µM", "> 25 µM"]

Can you give me TGI for all of these, one by one?
1. C=CC1CN(C(=O)OCC)N(C(=O)OCC)C1CCc1ccccc1 (stereo not given)
2. COc1ccc(/C=C2/SC(Nc3nc(-c4nc(NC5=NC(=O)/C(=C\c6ccc(OC)cc6)S5)sc4C)c(C)s3)=NC2=O)cc1

Result:
> 100 µM
> 16.2 µM

----------
# Tested on: SF-295 CNS
# Measurement Protocol: NCI tumour cell line growth inhibition, 48 h; in the data active = GI50 below about 0.43 µM; inactive = the rest
Response enum: true (1) (active), false (0) (inactive)

Answered examples (5):
CCN(Cc1cccc(Cl)c1)c1ccc(CO)c(Cl)c1 :: false (0)
COc1cc(C(=O)c2cnc(-c3cccc4[nH]ccc34)[nH]2)cc(OC)c1OC :: true (1)
CC(=O)N1N=C(c2ccc(Nc3nc(Nc4ccc(F)cc4)nc(Nc4ccc(F)cc4)n3)cc2)CC1c1ccc(N(C)C)cc1 (stereo not drawn) :: false (0)
COC(=O)c1oc2c(C(=O)/C=C/c3ccc(OC)cc3)c(OCCN(C)C)ccc2c1C :: false (0)
C=CCC(N[C@H](CO)c1ccccc1)c1cn(Cc2ccccc2Cl)c(=O)n(Cc2ccccc2Cl)c1=O (stereo partly drawn) :: false (0)

Request: What outcome does the record of this test show for Cc1cc(Nc2cc(N3CCN(C)CC3)nc(/C=C/c3ccccc3)n2)n[nH]1 ?
Result: false (0)

Request: // return assay outcome for CC(=O)[CH-]C(=O)c1ccccc1.CC(=O)[CH-]C(=O)c1ccccc1.O=S(=O)([O-])c1cc([O-])c2c([O-])cc(S(=O)(=O)[O-])cc2c1.[Na+].[Zr+4]
Result: false (0)

Request: Record request — test call for C/C(=C(\c1ccc(OCCN2CCCCCC2)cc1)c1ccc(OC(=O)c2ccccc2)cc1)c1ccc(Cl)cc1
Result: false (0)

----------
# System: UACC-257 melanoma
# Measurement Protocol: NCI tumour cell line growth inhibition, 48 h
I'd appreciate it if you could supply GI50 values for the items below.

C/C(=N\NC(=O)c1ccccc1O)c1cccc(/C(C)=N/NC(=O)c2ccccc2O)n1.O=S(=O)([O-])[O-].[Fe+2] :: > 100 µM
C=CCC(N[C@@H](CO)c1ccccc1)c1cn(C(=O)OCC)c2ccccc12 (stereo partly specified) :: 22.9 µM
O=C1c2ccccc2-c2c1c1ccccc1c(=O)n2CCCNCCn1c2c(c3ccccc3c1=O)C(=O)c1ccccc1-2 :: 17.9 µM
Cn1c2c(c3c(Cl)nncc31)Cc1ccccc1-2 :: 48.7 µM
CC(=O)[CH-]C(=O)c1ccccc1.CC(=O)[CH-]C(=O)c1ccccc1.CC(=O)[CH-]C(=O)c1ccccc1.[Nd+3].[OH3+] :: 52.1 µM

Query compound follows.
For record Cc1cc(-c2cc(O)ccc2Cl)cc2nnc(Nc3ccc(OCCN4CCCC4)cc3)nc12 the listed GI50 is 1.96 µM

----------
# Test system: HS 578T breast
# Measurement Protocol: NCI tumour cell line growth inhibition, 48 h
Recorded Endpoint: TGI

For orientation, consider the following solved cases.
CC(=O)[C@H]1CCC/C=C/[C@@H]2C[C@H](O)C[C@H]2[C@H](O)/C=C/C(=O)O1 :: > 100 µM
C/C=C1/CC(C)C(C)(O)C(=O)OCC2C(O)CN3CCC(OC1=O)C23 (centres undefined) :: > 100 µM
Cc1cc(=O)oc2cc(OCC(O)COC(C)C)ccc12 (centres undefined) :: > 100 µM
COC(=O)CCNC(=O)OCc1ccccc1 :: > 100 µM
CCOC(=O)C(C#N)C1=CC(=O)C(=O)c2ccc(O)cc21 (centres undefined) :: > 100 µM

Lab note: each compound below needs its TGI filled in.
1. CC(C)=CCCC(C)CCOS(=O)C(F)(F)F (centres undefined)
2. CN(C)N1C(=O)S/C(=C\c2ccc([N+](=O)[O-])cc2)C1=O
3. C=C1C(=O)O[C@H]2C1C[C@@H](OC(C)=O)/C(C)=C/CC[C@@]1(C)O[C@H]21 (some centres undefined)
4. COc1cc(C(=O)c2cnc(-c3cccc4[nH]ccc34)[nH]2)cc(OC)c1OC
5. Cc1cc2c(-c3nc4ccccn4c3N)c(O)c(O)cc2c(O)c1-c1c(C)cc2c(-c3nc4ccccn4c3N)c(O)c(O)cc2c1O

Result:
1. 5.31 µM
2. > 100 µM
3. 86 µM
4. > 100 µM
5. > 25 µM

Entry source: PubChem BioAssay (NCI)
